- Procedure text: Pharmacokinetic parameters of i.v. tacrolimus in the presence of Q-Captisol in male Lewis rats
- Assay type: in vivo
- Setup conditions: male, Lewis, rat, whole blood, iv, 1 mg/kg, tacrolimus 1 mg/kg i.v., Q-Captisol Dose 0 mg/kg i.p. 30 min before
Reported property: Cmax (ng/mL)
Just the number in ng/mL, nothing appended.

# molecule C=CC[C@@H]1/C=C(\C)C[C@H](C)C[C@H](OC)[C@H]2O[C@@](O)(C(=O)C(=O)N3CCCC[C@H]3C(=O)O[C@H](/C(C)=C/[C@@H]3CC[C@@H](O)[C@H](OC)C3)[C@H](C)[C@@H](O)CC1=O)[C@H](C)C[C@@H]2OC [tacrolimus] ; its Cmax = 418
